Test system: CTK
Construct: gene MATK
measurement_setup: concentration: 1 μM,replicates: in singlicate; n = 1;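 note: KINOMEscan kinase panel screen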
readout: %Inh (%)

1. Cc1occc1-c1nc(N)c(OC[C@@H](N)Cc2c[nH]c3ccccc23)cc1-c1cc2c(C)n[nH]c2cn1 [GSK1660450]: 11
2. C[C@H]1Oc2cc(cnc2N)-c2c(nn(C)c2C#N)CN(C)C(=O)c2ccc(F)cc21: 0
3. NC(=O)c1cc(-c2ccccc2)cc2c(C3CCNCC3)c[nH]c12 [GSK301362]: 4
4. C=CC(=O)Nc1cc2c(Nc3ccc(F)c(Cl)c3)ncnc2cc1OCCCN1CCOCC1 [GW781483]: 4
5. Nc1nc(Nc2ccccc2)cc(-c2ccc3c(N)n[nH]c3c2)n1 [GSK2225749]: 0
6. CCN(CC)CCCCNc1ncc2cc(-c3c(Cl)cccc3Cl)c(NC(=O)NC(C)(C)C)nc2n1: 15
7. O=C(NCCNc1ccnc(NCc2ccc(F)cc2)n1)c1cc2ccccc2s1 [GSK1379944]: 0
8. C[C@@H](Oc1cc(-c2cnn(C3CCNCC3)c2)cnc1N)c1c(Cl)ccc(F)c1Cl: 13
9. Cc1ccc2c(-c3ccncc3)c(-c3ccc(F)cc3)nn2c1.Cl [GW461484]: 0
10. Cc1cc(C(=O)Nc2ccc(Oc3ccc4nc(NC(=O)C5CC5)cn4n3)cc2)nn1-c1ccccc1: 0
11. Cl.Cl.NC[C@H](Cc1ccc(C(F)(F)F)cc1)NC(=O)c1cc(Br)c(-c2ccnc3[nH]ccc23)s1 [GSK1487252]: 0
12. CNC(=O)c1ccccc1Sc1ccc2c(/C=C/c3ccccn3)n[nH]c2c1: 8
13. CC(C)Nc1cc(-c2ccc3c(N)n[nH]c3c2)nc(N)n1 [GSK2221681]: 0
14. Cl.Cl.NC[C@H](CC1CCCCC1)NC(=O)c1cc(Br)c(-c2ccnc3[nH]ccc23)s1 [GSK1581427]: 0
15. CCN(CC)CCOc1ccc(Nc2ncc3cc(-c4c(Cl)cccc4Cl)c(=O)n(C)c3n2)cc1 [SB-601273]: 27
16. Cl.Oc1cc(-c2nc(-c3ccccc3)[nH]c2-c2ccncc2)ccc1Cl [SB-386023]: 38
17. COc1ccc(C[C@@H](CN)NC(=O)c2cc(Br)c(-c3ccnc4[nH]ccc34)s2)cc1.Cl.Cl [GSK1389063]: 2

---

Test system: BUB1
measurement_setup: concentration: 1 μM,replicates: in singlicate; n = 1
readout: %Inh (%)

1. CCN(CC)CCOc1ccc(Nc2ncc3cc(-c4c(Cl)cccc4Cl)c(=O)n(C)c3n2)cc1 [SB-601273]: 56
2. C[C@@H]1CCN(C(=O)CC#N)C[C@@H]1N(C)c1ncnc2[nH]ccc12: 0
3. CC(C)N1C(=O)Cc2cc(Nc3ncc(C(F)(F)F)c(NCc4cccc(S(C)(=O)=O)c4)n3)ccc21: 26
4. O=C(NCCCN1CCOC1=O)c1cnc(NCc2cc(Cl)ccc2Cl)nc1NC1CCCC1: 5
5. Nc1nc(Nc2ccccc2)cc(-c2ccc3c(N)n[nH]c3c2)n1 [GSK2225749]: 90

---

Tested on: CSK
measurement_setup: concentration: 1 μM,replicates: in singlicate; n = 1
Recorded %Inh by entry
readout: %Inh (%)

1. Cc1occc1-c1nc(N)c(OC[C@@H](N)Cc2c[nH]c3ccccc23)cc1-c1cc2c(C)n[nH]c2cn1: 0
2. C[C@@H](Oc1cc(-c2cnn(C3CCNCC3)c2)cnc1N)c1c(Cl)ccc(F)c1Cl: 24
3. Cl.Cl.Nc1nc(-c2ccc3c(N)n[nH]c3c2)cc(N2CCCC(NC(=O)c3ccccc3)C2)n1 (centres unmarked): 5
4. Cl.Cl.NC[C@H](CC1CCCCC1)NC(=O)c1cc(Br)c(-c2ccnc3[nH]ccc23)s1: 0
5. CCN(CC)CCCCNc1ncc2cc(-c3c(Cl)cccc3Cl)c(NC(=O)NC(C)(C)C)nc2n1: 90.5
6. Cc1cc(C(=O)Nc2ccc(Oc3ccc4nc(NC(=O)C5CC5)cn4n3)cc2)nn1-c1ccccc1: 15
7. COc1ccc(C[C@@H](CN)NC(=O)c2cc(Br)c(-c3ccnc4[nH]ccc34)s2)cc1.Cl.Cl: 0
8. CCN(CC)CCOc1ccc(Nc2ncc3cc(-c4c(Cl)cccc4Cl)c(=O)n(C)c3n2)cc1: 98.4
9. C=CC(=O)Nc1cc2c(Nc3ccc(F)c(Cl)c3)ncnc2cc1OCCCN1CCOCC1: 5
10. NC(=O)c1cc(-c2ccccc2)cc2c(C3CCNCC3)c[nH]c12: 0
11. Cl.Cl.NC[C@H](Cc1ccc(C(F)(F)F)cc1)NC(=O)c1cc(Br)c(-c2ccnc3[nH]ccc23)s1: 0

---

Test system: PKAC-beta
Construct: gene PRKACB
measurement_setup: concentration: 1 μM,replicates: in singlicate; n = 1
readout: %Inh (%)

1) O=C(NCCCN1CCOC1=O)c1cnc(NCc2cc(Cl)ccc2Cl)nc1NC1CCCC1: 6
2) Cc1occc1-c1nc(N)c(OC[C@@H](N)Cc2c[nH]c3ccccc23)cc1-c1cc2c(C)n[nH]c2cn1: 99.3
3) CC(C)Nc1cc(-c2ccc3c(N)n[nH]c3c2)nc(N)n1: 0
4) COc1ccc(C[C@@H](CN)NC(=O)c2cc(Br)c(-c3ccnc4[nH]ccc34)s2)cc1.Cl.Cl: 99.7
5) CNC(=O)c1ccccc1Sc1ccc2c(/C=C/c3ccccn3)n[nH]c2c1: 0
6) CCN(CC)CCOc1ccc(Nc2ncc3cc(-c4c(Cl)cccc4Cl)c(=O)n(C)c3n2)cc1: 0
7) O=C(NCCNc1ccnc(NCc2ccc(F)cc2)n1)c1cc2ccccc2s1: 14
8) Cl.Oc1cc(-c2nc(-c3ccccc3)[nH]c2-c2ccncc2)ccc1Cl: 1
9) Cc1cc(C(=O)Nc2ccc(Oc3ccc4nc(NC(=O)C5CC5)cn4n3)cc2)nn1-c1ccccc1: 21
10) CCn1c(-c2nonc2N)nc2c(C#CC(C)(C)O)nc(OCCN)cc21.Cl.Cl: 81
11) Cc1ccc2c(-c3ccncc3)c(-c3ccc(F)cc3)nn2c1.Cl: 22
12) CC(C)N1C(=O)Cc2cc(Nc3ncc(C(F)(F)F)c(NCc4cccc(S(C)(=O)=O)c4)n3)ccc21: 0
13) C[C@@H]1CCN(C(=O)CC#N)C[C@@H]1N(C)c1ncnc2[nH]ccc12: 0
14) Cl.Cl.NC[C@H](CC1CCCCC1)NC(=O)c1cc(Br)c(-c2ccnc3[nH]ccc23)s1: 99.6
15) Nc1nc(Nc2ccccc2)cc(-c2ccc3c(N)n[nH]c3c2)n1: 0
16) Cc1ccc(-n2nc(C(C)(C)C)cc2NC(=O)Nc2ccc(OCCN3CCOCC3)c3ccccc23)cc1: 34

---

System: MEK5
Construct: gene MAP2K5
measurement_setup: concentration: 1 μM,replicates: in singlicate; n = 1
Assign labels as follows, please: 1 for %Inh below 20%; 0 for %Inh equal to or exceeding 20%.

1. CNC(=O)c1ccccc1Sc1ccc2c(/C=C/c3ccccn3)n[nH]c2c1: 0
2. CN(C)CCOc1ccc(-c2cc(-c3c[nH]nc3-c3ccccn3)ccn2)cc1: 0
3. Cl.Cl.NC[C@H](CC1CCCCC1)NC(=O)c1cc(Br)c(-c2ccnc3[nH]ccc23)s1: 1
4. O=C(NCCCN1CCOC1=O)c1cnc(NCc2cc(Cl)ccc2Cl)nc1NC1CCCC1: 0
5. O=C(NCCNc1ccnc(NCc2ccc(F)cc2)n1)c1cc2ccccc2s1: 1
6. Cc1ccc(-n2nc(C(C)(C)C)cc2NC(=O)Nc2ccc(OCCN3CCOCC3)c3ccccc23)cc1: 1
7. Cc1ccc2c(-c3ccncc3)c(-c3ccc(F)cc3)nn2c1.Cl: 1
8. CCN(CC)CCCCNc1ncc2cc(-c3c(Cl)cccc3Cl)c(NC(=O)NC(C)(C)C)nc2n1: 0

---

Tested on: NEK5
measurement_setup: concentration: 1 μM,replicates: in singlicate; n = 1
readout: %Inh (%)

1. CCN(CC)CCCCNc1ncc2cc(-c3c(Cl)cccc3Cl)c(NC(=O)NC(C)(C)C)nc2n1: 0
2. CN(C)CCOc1ccc(-c2cc(-c3c[nH]nc3-c3ccccn3)ccn2)cc1: 0
3. Cc1cc2cn[nH]c2cc1-c1cccc2c(N)c(C(N)=O)nnc12: 2

---

Entries annotated with measured %Inh
Test system: TAOK2
measurement_setup: concentration: 1 μM,replicates: in singlicate; n = 1
readout: %Inh (%)

1) Cc1cc2cn[nH]c2cc1-c1cccc2c(N)c(C(N)=O)nnc12: 37
2) Cc1ccc2c(-c3ccncc3)c(-c3ccc(F)cc3)nn2c1.Cl [GW461484]: 0
3) CN(C)CC(O)COc1ccc(Nc2nccc(-c3cnn4nc(N5CCOCC5)ccc34)n2)cc1 (stereo not shown) [GW767488]: 34
4) Cl.Cl.NC[C@H](CC1CCCCC1)NC(=O)c1cc(Br)c(-c2ccnc3[nH]ccc23)s1 [GSK1581427]: 0
